target under test: Androgen receptor (Homo sapiens) (UniProt P10275)
Sequence (P10275 whole entry, looked up): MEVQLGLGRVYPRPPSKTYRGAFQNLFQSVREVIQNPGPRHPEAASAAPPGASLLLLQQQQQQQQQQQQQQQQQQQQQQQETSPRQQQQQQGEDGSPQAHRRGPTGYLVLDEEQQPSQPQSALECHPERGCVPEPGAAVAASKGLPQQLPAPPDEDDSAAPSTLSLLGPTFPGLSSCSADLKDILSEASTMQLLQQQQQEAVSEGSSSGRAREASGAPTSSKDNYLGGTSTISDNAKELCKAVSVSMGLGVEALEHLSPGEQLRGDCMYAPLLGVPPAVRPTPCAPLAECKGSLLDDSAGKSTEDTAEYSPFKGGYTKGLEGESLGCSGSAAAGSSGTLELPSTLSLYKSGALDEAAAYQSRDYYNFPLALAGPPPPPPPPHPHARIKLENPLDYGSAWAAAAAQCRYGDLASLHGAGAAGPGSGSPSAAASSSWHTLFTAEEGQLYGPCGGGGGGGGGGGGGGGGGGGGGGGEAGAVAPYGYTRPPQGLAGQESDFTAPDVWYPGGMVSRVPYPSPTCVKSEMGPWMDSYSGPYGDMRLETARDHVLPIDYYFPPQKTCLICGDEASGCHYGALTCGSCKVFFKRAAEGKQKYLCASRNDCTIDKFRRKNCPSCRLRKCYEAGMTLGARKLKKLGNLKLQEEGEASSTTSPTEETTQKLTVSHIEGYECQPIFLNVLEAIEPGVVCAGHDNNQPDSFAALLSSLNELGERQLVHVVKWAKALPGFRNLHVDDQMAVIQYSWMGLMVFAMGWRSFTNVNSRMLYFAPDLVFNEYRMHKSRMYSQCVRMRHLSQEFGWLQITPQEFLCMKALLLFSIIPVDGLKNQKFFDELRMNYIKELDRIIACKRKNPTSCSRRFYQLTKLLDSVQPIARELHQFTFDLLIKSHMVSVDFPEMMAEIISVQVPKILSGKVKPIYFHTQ
method description: qHTS assay to identify small molecule antagonists of the androgen receptor (AR) signaling pathway using the MDA cell line (AID 743042; further: nearly all actives have a fitted effect of over 55% in size)
recorded conditions: MDA-kb2 AR-luc, MMTV luciferase, R1881 antagonist, 16 h; series mostly up to 70.3 µM
Inconclusive results are not listed. Active and inactive are the calls of the source. The call rests on the fitted dose curve; in most records, active means well fitted inhibition curve with a large enough effect in the repeat runs; inconclusive means weak or mixed curves, or effect the other way; inactive means no such curve, though single readings can be large or run the other way.
Returns: one label drawn from active, inactive

Before answering, review these 5 worked examples.
[[record]]
compound = "CCC(=O)O[C@H]1CC[C@H]2[C@@H]3CCc4cc(O)ccc4[C@H]3CC[C@]12C"
target_under_test = "Androgen receptor (Homo sapiens) (UniProt P10275)"
assigned_class = "inactive"

[[record]]
compound = "CC(=O)O[C@H]1C(=O)[C@@]2(C)[C@H]([C@H](OC(=O)c3ccccc3)[C@]3(O)C[C@H](OC(=O)[C@H](O)[C@@H](NC(=O)c4ccccc4)c4ccccc4)C(C)=C1C3(C)C)[C@]1(OC(C)=O)CO[C@@H]1C[C@@H]2O"
target_under_test = "Androgen receptor (Homo sapiens) (UniProt P10275)"
assigned_class = "inactive"

[[record]]
compound = "CN=C1C=CC(=C(c2ccc(N(C)C)cc2)c2ccc(N(C)C)cc2)C=C1"
target_under_test = "Androgen receptor (Homo sapiens) (UniProt P10275)"
assigned_class = "active"

[[record]]
compound = "CCOC(=O)c1cc(-c2ccccc2)nc2ccc(C)cc12"
target_under_test = "Androgen receptor (Homo sapiens) (UniProt P10275)"
assigned_class = "inactive"

[[record]]
compound = "OC[C@H]1O[C@@H](O[C@H]2[C@H](O)[C@@H](O)[C@H](O)O[C@@H]2CO)[C@H](O)[C@@H](O)[C@@H]1O"
target_under_test = "Androgen receptor (Homo sapiens) (UniProt P10275)"
assigned_class = "inactive"


Field: outcome | Entry: CC(C)(C)NC(=O)[C@H]1CC[C@H]2[C@@H]3CC=C4C=C(C(=O)O)CC[C@]4(C)[C@H]3CC[C@]12C inactive

Repeat with COc1ccc(CCNCC(O)COc2cccc(C)c2)cc1OC (configuration not stated) inactive

----------
target under test: Glucocorticoid receptor (Homo sapiens)
method description: qHTS assay to identify small molecule agonists of the glucocorticoid receptor (GR) signaling pathway (AID 720691)
recorded conditions: GR-bla HeLa, beta-lactamase reporter ratio, 18 h
Activity calls are given as the source filed them. Calls follow the shape of the dose curve; as a rule, active = well fitted activation curve with a large enough effect in the signal ratio in the repeat runs (not every such curve was filed as active); inconclusive = weak or mixed curves, or effect the other way; inactive = no such curve, though single readings can be large or run the other way; the % refers to the signal ratio.
Returns: one label drawn from active, inactive

[[record]]
compound = "Cc1cc(-n2c(=O)[nH]c(=O)n(C)c2=O)ccc1Oc1ccc(S(=O)(=O)C(F)(F)F)cc1"
assigned_class = "inactive"

[[record]]
compound = "Clc1cc(Cl)c(OCC#CI)cc1Cl"
assigned_class = "active"

[[record]]
compound = "CC(C)N=c1cc2n(-c3ccc(Cl)cc3)c3ccccc3nc-2cc1Nc1ccc(Cl)cc1"
assigned_class = "inactive"

[[record]]
compound = "NC(=O)OC[C@@H]1[C@H](NC(=O)/C(=N\\OCC(=O)O)c2csc(N)n2)C(=O)N1S(=O)(=O)O"
assigned_class = "inactive"

[[record]]
compound = "O.O=C([O-])CC([S-])C(=O)[O-].[Au+].[Na+].[Na+] (stereo not drawn)"
assigned_class = "inactive"


Next item in the queue.
Field: outcome | Entry: CC(=O)O[C@H]1CC[C@@]2(C)C(=CC[C@@H]3[C@@H]2CC[C@]2(C)C(c4cccnc4)=CC[C@@H]32)C1 inactive

----------
target under test: Aryl hydrocarbon receptor (Homo sapiens) (UniProt P35869)
Sequence (P35869 whole entry, looked up): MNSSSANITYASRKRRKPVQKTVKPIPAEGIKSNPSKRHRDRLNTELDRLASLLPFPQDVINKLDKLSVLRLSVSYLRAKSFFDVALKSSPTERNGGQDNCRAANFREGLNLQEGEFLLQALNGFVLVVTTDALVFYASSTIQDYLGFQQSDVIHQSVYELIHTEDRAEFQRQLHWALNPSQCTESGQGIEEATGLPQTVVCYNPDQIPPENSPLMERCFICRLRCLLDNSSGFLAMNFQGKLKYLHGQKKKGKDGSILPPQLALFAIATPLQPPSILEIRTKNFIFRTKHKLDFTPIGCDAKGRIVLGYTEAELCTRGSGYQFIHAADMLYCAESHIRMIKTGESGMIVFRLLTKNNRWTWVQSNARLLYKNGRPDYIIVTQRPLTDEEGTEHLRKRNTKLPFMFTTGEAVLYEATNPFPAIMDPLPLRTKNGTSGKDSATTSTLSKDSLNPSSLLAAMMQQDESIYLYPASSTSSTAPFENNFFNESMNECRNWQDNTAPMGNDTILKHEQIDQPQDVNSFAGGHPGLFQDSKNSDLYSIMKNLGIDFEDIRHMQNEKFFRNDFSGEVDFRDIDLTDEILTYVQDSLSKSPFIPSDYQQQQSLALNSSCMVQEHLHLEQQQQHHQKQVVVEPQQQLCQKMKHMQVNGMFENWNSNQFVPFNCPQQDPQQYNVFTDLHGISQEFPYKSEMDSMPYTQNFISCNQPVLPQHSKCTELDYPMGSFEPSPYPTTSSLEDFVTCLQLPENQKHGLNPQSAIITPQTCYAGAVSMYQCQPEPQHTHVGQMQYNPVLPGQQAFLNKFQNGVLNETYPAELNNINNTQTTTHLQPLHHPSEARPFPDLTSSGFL
method description: qHTS assay to identify small molecule that activate the aryl hydrocarbon receptor (AhR) signaling pathway (AID 743085); further: nearly all actives have a fitted effect of over 15% in size;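 on activation: HG2L7.5c1 human HepG2 liver cells with stably integrated DRE-driven firefly reporter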
recorded conditions: HepG2 AhR-luc (HG2L7.5c1), luciferase, 24 h; series mostly up to 70.3 µM
Inconclusive results are not listed. Calls of active or inactive are those of the source. Calls follow the shape of the dose curve; as a rule, active = well fitted activation curve with a large enough effect in the repeat runs; inconclusive = weak or mixed curves; inactive = no such curve, though single readings can be large or run the other way.
Returns: one label drawn from active, inactive

[[record]]
compound = "CC1(C)N=C(N)N=C(N)N1c1ccc(Cl)cc1"
assigned_class = "inactive"


Field: outcome | Entry: O=C(Cn1c(=O)sc2ccc(Cl)cc21)N1CCN(CCO)CC1 inactive

Repeat with C=C[C@]1(C)C[C@@H](OC(=O)CSC(C)(C)CNC(=O)[C@H](N)C(C)C)[C@]2(C)[C@H](C)CC[C@]3(CCC(=O)[C@H]32)[C@@H](C)[C@@H]1O inactive

Repeat with C=CCN1CCCC1CNC(=O)c1cc(S(N)(=O)=O)cc(OC)c1OC (centres undefined) inactive

Repeat with Cc1cc2nc3c(=O)[nH]c(=O)nc-3n(C[C@H](O)[C@H](O)[C@H](O)COP(=O)(O)OP(=O)(O)OC[C@H]3O[C@@H](n4cnc5c(N)ncnc54)[C@H](O)[C@@H]3O)c2cc1C inactive

Repeat with CC(C)Cc1ccc([C@@H](C)C(=O)NS(C)(=O)=O)cc1 inactive

Repeat with O=C(O)CO.[NH2-].[NH2-].[Pt+2] inactive

Repeat with CCN(CC)c1ccc(C(=C2C=CC(=[N+](CC)CC)C=C2)c2ccccc2)cc1 inactive

Repeat with CC1(C)C(\C=C/C=C\C=C/C=C2/N(CCCCS(=O)(=O)O)c3ccc4ccccc4c3C2(C)C)=[N+](CCCCS(=O)(=O)[O-])c2ccc3ccccc3c21 inactive

Repeat with C[C@]12CC[C@@H]3c4ccc(O)cc4CC[C@H]3[C@@H]1CC[C@@H]2OP(=O)(O)O inactive

Repeat with O=C(O)CC/C=C\CC[C@@H]1[C@@H](N2CCCCC2)[C@@H](O)C[C@@H]1OCc1ccc(-c2ccccc2)cc1 inactive

Repeat with CC1(C)S[C@@H]2[C@H](NC(=O)C3(N)CCCCC3)C(=O)N2[C@H]1C(=O)O inactive

Repeat with CC[C@H](C)[C@H]1O[C@]2(CC[C@@H]1C)C[C@@H]1C[C@@H](C/C=C(\C)[C@@H](O[C@H]3C[C@H](OC)[C@@H](O[C@H]4C[C@H](OC)[C@@H](O)[C@H](C)O4)[C@H](C)O3)[C@@H](C)/C=C/C=C3\CO[C@@H]4[C@H](O)C(C)=C[C@@H](C(=O)O1)[C@]34O)O2 inactive

Repeat with CCOc1cc(-c2nccc3cc(OC)c(OC)cc23)cc(OCC)c1OCC active

Repeat with O=C1C(=O)c2ncccc2-c2cccnc21 active

Repeat with CO[C@H]1C[C@H](O[C@H]2[C@H](C)O[C@@H](O[C@@H]3/C(C)=C/C[C@@H]4C[C@@H](C[C@]5(C=C[C@H](C)[C@@H](C6CCCCC6)O5)O4)OC(=O)[C@@H]4C=C(C)[C@@H](O)[C@H]5OC/C(=C\C=C\[C@@H]3C)[C@]54O)C[C@@H]2OC)O[C@@H](C)[C@@H]1O inactive

Repeat with CN(C)C(=O)CCSC(SCCC(=O)O)c1cccc(/C=C/c2ccc3ccc(Cl)cc3n2)c1 (centres undefined) active

Repeat with C#C[C@]1(O)CC[C@H]2[C@@H]3CCC4=CCCC[C@@H]4[C@H]3C(=C)C[C@@]21CC inactive

Repeat with CC(=O)N[C@@H]([C@@H](O)[C@H](O)[C@H](O)CO)[C@@H](O)CC(=O)C(=O)O inactive

Repeat with NC(=O)C[C@@H](N)C(=O)O inactive

----------
target under test: Estrogen receptor (Homo sapiens) (UniProt P03372)
Sequence (P03372 whole entry, looked up): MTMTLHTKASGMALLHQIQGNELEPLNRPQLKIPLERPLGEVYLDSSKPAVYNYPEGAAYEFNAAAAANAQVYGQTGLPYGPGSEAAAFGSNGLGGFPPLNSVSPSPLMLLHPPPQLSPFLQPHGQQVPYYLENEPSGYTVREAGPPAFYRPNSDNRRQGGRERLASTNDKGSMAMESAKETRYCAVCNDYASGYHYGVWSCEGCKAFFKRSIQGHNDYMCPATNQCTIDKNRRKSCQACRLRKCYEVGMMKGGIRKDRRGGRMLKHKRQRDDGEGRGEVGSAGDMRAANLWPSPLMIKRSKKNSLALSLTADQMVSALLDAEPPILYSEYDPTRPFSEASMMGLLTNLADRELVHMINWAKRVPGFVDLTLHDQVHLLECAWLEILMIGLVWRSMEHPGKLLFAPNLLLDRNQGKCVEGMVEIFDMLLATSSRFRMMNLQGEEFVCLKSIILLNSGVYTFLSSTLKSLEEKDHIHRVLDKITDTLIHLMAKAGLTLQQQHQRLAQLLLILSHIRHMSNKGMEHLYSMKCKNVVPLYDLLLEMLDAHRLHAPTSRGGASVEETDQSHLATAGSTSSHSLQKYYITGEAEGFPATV
method description: qHTS assay to identify small molecule agonists of the estrogen receptor alpha (ER-alpha) signaling pathway using the BG1 cell line (AID 743079); further: nearly all actives have a fitted effect of over 20% in size
recorded conditions: BG1Luc4E2 cells, ERE-luciferase agonist, 22 h
Records with an inconclusive call do not appear. Calls of active or inactive are those of the source. The call rests on the fitted dose curve; in most records, active means well fitted activation curve with a large enough effect in the repeat runs; inconclusive means weak or mixed curves, or effect the other way; inactive means no such curve, though single readings can be large or run the other way. Positions of bridges follow the written chain, without caps; N, C: chain ends. Non-standard residues stand in square brackets, D forms with d. Residues, ends and D or L forms follow the SMILES beside them. *: point of attachment. X2 = CC[C@H](C)CCCCC(=O)*; Orn = NCCC[C@H](N)C(=O)O; Dab = NCC[C@H](N)C(=O)O; Mpa = O=C(O)CCS
Returns: one label drawn from Yes (active), No (inactive)

[[record]]
compound = "CC(C)N1CCN(c2ccc(OC[C@H]3CO[C@](Cn4cncn4)(c4ccc(Cl)cc4Cl)O3)cc2)CC1"
target_under_test = "Estrogen receptor (Homo sapiens) (UniProt P03372)"
assigned_class = "No"

[[record]]
compound = "OCC(S)CS (centres undefined)"
target_under_test = "Estrogen receptor (Homo sapiens) (UniProt P03372)"
assigned_class = "No"

[[record]]
compound = "C=CCOc1ccc(CC(=O)O)cc1Cl"
target_under_test = "Estrogen receptor (Homo sapiens) (UniProt P03372)"
assigned_class = "Yes"

[[record]]
compound = "CO/N=C(\\C(=O)N[C@@H]1C(=O)N2C(C(=O)O)=C(CSc3nnnn3C)CS[C@H]12)c1csc(N)n1"
target_under_test = "Estrogen receptor (Homo sapiens) (UniProt P03372)"
assigned_class = "No"

[[record]]
compound = "CC(C)(C)C(=O)OCOC(=O)[C@@H]1N2C(=O)[C@@H](N=CN3CCCCCC3)[C@H]2SC1(C)C"
target_under_test = "Estrogen receptor (Homo sapiens) (UniProt P03372)"
assigned_class = "No"

[[record]]
compound = "CC[C@H](C)CCCCC(=O)N[C@@H](CCN)C(=O)N[C@H](C(=O)N[C@@H](CCN)C(=O)N[C@H]1CCNC(=O)[C@@H]([C@H](C)O)NC(=O)[C@H](CCN)NC(=O)[C@H](CCN)NC(=O)[C@H](CC(C)C)NC(=O)[C@@H](CC(C)C)NC(=O)[C@H](CCN)NC1=O)[C@@H](C)O (X2-[Dab]T[Dab][Dab][Dab][dL]L[Dab][Dab][dT]; lactam 4-C)"
target_under_test = "Estrogen receptor (Homo sapiens) (UniProt P03372)"
assigned_class = "No"

[[record]]
compound = "O=P(O)(O)OC(Cn1cncn1)(Cn1cncn1)c1ccc(F)cc1F"
target_under_test = "Estrogen receptor (Homo sapiens) (UniProt P03372)"
assigned_class = "No"

[[record]]
compound = "CC#CCC(C)[C@H](O)/C=C/[C@@H]1[C@H]2C/C(=C/CCCC(=O)O)C[C@H]2C[C@H]1O (some centres undefined)"
target_under_test = "Estrogen receptor (Homo sapiens) (UniProt P03372)"
assigned_class = "Yes"

[[record]]
compound = "O=C(O)c1ccc(NC(=O)[C@H](Cc2ccc(O)cc2)NC(=O)c2ccccc2)cc1"
target_under_test = "Estrogen receptor (Homo sapiens) (UniProt P03372)"
assigned_class = "No"

[[record]]
compound = "CC(C)CCCC(C)NC(C)C (centres undefined)"
target_under_test = "Estrogen receptor (Homo sapiens) (UniProt P03372)"
assigned_class = "No"


Field: outcome | Entry: Nc1nc2[nH]cc(CCc3ccc(C(=O)N[C@@H](CCC(=O)O)C(=O)O)cc3)c2c(=O)[nH]1 No

Repeat with O=C(NOC[C@H](O)CO)c1ccc(F)c(F)c1Nc1ccc(I)cc1F No

Repeat with C=CCCCCCCCCC(=O)OC No

Repeat with CCOc1ccc(C[C@H]2NC(=O)CCSSC[C@@H](C(=O)N3CCC[C@H]3C(=O)N[C@@H](CCCN)C(=O)NCC(N)=O)NC(=O)[C@H](CC(N)=O)NC(=O)[C@H]([C@@H](C)O)NC(=O)[C@H]([C@@H](C)CC)NC2=O)cc1 ([Mpa][dY](Et)ITNCP[Orn]G-NH2; disulfide 1-6) No

Values compiled from PubChem BioAssay (Tox21).
